target_or_system: T1, hIL-4Rα.ECD (human, UniProt P24394 26-232)
T1 construct: extracellular domain; also called hIL-4Rα protein
measurement_description: SPR, antibody captured by anti-human Fc on CM5, hIL-4Rα.ECD analyte
measured_attribute: kon
Just the number plus its unit, please.

Reported kon for m8 (antibody, human IgG4 S228P, kappa, V domains shown, also called m8 molecule; anti-IL-4R antibody m8) VH: QVQLVQSGAEVKKPGASVKVSCKASGYTFTTYYIYWVRQAPGQGLEWMGGSNPSTGGTLDNEKFKTRVTMTVDKSTSTAYMELSSLRSEDTAVYYCTRSGRYAPFTYWGQGTLVTVSS VL: DIQMTQSPSSLSASVGDRVTITCKASQDVSTSVAWYQQKPGKAPKLLIYSASYRFTGVPSRFSGSGSGTDFTFTISSLQPEDFATYYCQHYSTTPFTFGQGTKLEIKR was 903000 M⁻¹ s⁻¹

Reported kon for Dupilumab (antibody, V domains shown) VH: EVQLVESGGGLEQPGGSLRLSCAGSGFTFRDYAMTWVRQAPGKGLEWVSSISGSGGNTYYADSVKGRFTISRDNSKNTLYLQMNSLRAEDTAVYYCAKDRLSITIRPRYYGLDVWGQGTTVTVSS VL: DIVMTQSPLSLPVTPGEPASISCRSSQSLLYSIGYNYLDWYLQKSGQSPQLLIYLGSNRASGVPDRFSGSGSGTDFTLKISRVEAEDVGFYYCMQALQTPYTFGQGTKLEIKR was 1.43e+06 M⁻¹ s⁻¹

Reported kon for m27 (antibody, V domains shown, captured by anti-human Fc); also called m27 molecule) VH: QVQLVQSGAEVKKPGASVKVSCKASGYTFTTYYIYWVRQAPGQGLEWMGGSNPSTGGTLENEKFKTRVTMTVDKSTSTAYMELSSLRSEDTAVYYCTRSGRYATFTYWGQGTLVTVSS VL: DIQMTQSPSSLSASVGDRVTITCKASQDVSTSVAWYQQKPGKAPKLLIYSASYRFTGVPSRFSGSGSGTDFTFTISSLQPEDFATYYCVHYSTTPFTFGQGTKLEIK was 568000 M⁻¹ s⁻¹

Reported kon for m21 (antibody, V domains shown, captured by anti-human Fc); also called m21 molecule) VH: QVQLVQSGAEVKKPGASVKVSCKASGYTFTTYYIYWVRQAPGQGLEWMGGSNPSTGGTLENEKFKTRVTMTVDKSTSTAYMELSSLRSEDTAVYYCTRSGRYAPFTYWGQGTLVTVSS VL: DIQMTQSPSSLSASVGDRVTITCKASQDVSTSVAWYQQKPGKAPKLLIYSASYRFTGVPSRFSGSGSGTDFTFTISSLQPEDFATYYCVHYSTTPFTFGQGTKLEIK was 582000 M⁻¹ s⁻¹
